These entries and their values trace back to ChEMBL document CHEMBL3808280.

- Tested on: Enterobacter cloacae
- Assay name: Antibacterial activity against multidrug resistant Enterobacter cloacae subsp. cloacae CDC 442-68 (ATCC 13047) assessed as reduction in bacterial growth incubated for 6 to 8 hrs
- Assay type: functional, organism-based
Endpoint label: EC50

Below, 6 compounds whose answers are already recorded.
* NC[C@H]1O[C@H](O[C@H]2[C@H](O)[C@@H](O[C@H]3O[C@H](CO)[C@@H](O)[C@H](N)[C@H]3O)[C@H](N)C[C@@H]2N)[C@H](O)[C@@H](O)[C@@H]1O | 37 µM
* O=C(CC1Nc2cccc3cccc(c23)NC1=O)Nc1cccc([N+](=O)[O-])c1 (stereo not given) | > 100 µM
* CN[C@@H](CC(C)C)C(=O)N[C@H]1C(=O)N[C@@H](CC(N)=O)C(=O)N[C@H]2C(=O)N[C@H]3C(=O)N[C@H](C(=O)N[C@@H](C(=O)O)c4cc(O)cc(O)c4-c4cc3ccc4O)[C@H](O)c3ccc(c(Cl)c3)Oc3cc2cc(c3O[C@H]2O[C@@H](CO)[C@H](O)[C@@H](O)[C@@H]2O[C@@H]2C[C@@](C)(N)[C@@H](O)[C@@H](C)O2)Oc2ccc(cc2Cl)[C@H]1O | > 100 µM
* CC(=O)c1cc2c(cc1NC(=O)c1ccccc1Br)OCCO2 | > 100 µM
* COc1ccc(C(=O)N/N=C/c2ccc(O)c3ncccc23)cc1 | > 100 µM
* O=C(N[C@H](CO)[C@H](O)c1ccc([N+](=O)[O-])cc1)C(Cl)Cl | 2.2 µM

Requested field: EC50. Item: CN(C)c1ccc(O)c2c1C[C@H]1C[C@H]3[C@H](N(C)C)C(O)=C(C(N)=O)C(=O)[C@@]3(O)C(O)=C1C2=O
1.5 µM

Requested field: EC50. Item: COC(=O)c1ccc(-c2ccc(/C=C3/SC(=S)NC3=O)o2)cc1
> 100 µM

Requested field: EC50. Item: COc1cccc(/C=C2/SC(=S)N(CCC(=O)Nc3ccc(O)cc3)C2=O)c1
> 100 µM

Requested field: EC50. Item: O=c1c([N+](=O)[O-])c(Cl)c2ccccc2n1Cc1ccccc1
> 100 µM

Requested field: EC50. Item: CNC(=O)Nc1ccc2nc(-c3ccco3)c(-c3ccco3)nc2c1
> 100 µM

====

- Assay name: Therapeutic index, ratio of EC50 for HEK293 cells to EC50 for Staphylococcus aureus subsp. aureus Seattle 1945 (ATCC 25923)
- Assay type: cell-based
- Stated conditions: human, read-out: Ratio EC50
Endpoint label: selectivity ratio
No unit in the answer, please; the number alone is enough.

Requested field: selectivity ratio. Item: O=C(Nc1ccc(Sc2nc3ccccc3s2)c(Cl)c1)c1cc(Br)cc(Br)c1O
390

====

- Test system: Staphylococcus aureus
- Assay name: Antibacterial activity against methicillin resistant Staphylococcus aureus subsp. aureus HPV107 (ATCC BAA-44) assessed as reduction in bacterial growth incubated for 6 to 8 hrs
- Type: functional, organism-based
Endpoint label: log10(EC50) (log10 of the value in µM)
Base-10 log of EC50, unit µM.

Below, 5 compounds whose answers are already recorded.
* O=c1c([N+](=O)[O-])c(Cl)c2ccccc2n1Cc1ccccc1 | 1.32
* O=C(Nc1ccc(Sc2nc3ccccc3s2)c(Cl)c1)c1cc(Br)cc(Br)c1O | -0.89
* O=C(Nc1cc([N+](=O)[O-])ccc1O)c1ccc2c(c1)C(=O)N(Cc1ccccc1)C2=O | 1.18
* Cn1c(=O)c(C(=O)Nc2ccncc2)c(O)c2ccccc21 | 0.11
* CN(C)c1ccc(O)c2c1C[C@H]1C[C@H]3[C@H](N(C)C)C(O)=C(C(N)=O)C(=O)[C@@]3(O)C(O)=C1C2=O [MINOCYCLINE] | -0.46

Here is the next item to consider.
Requested field: log10(EC50). Item: O=C(/C=C/c1ccco1)c1ccc(NC(=O)c2cccs2)cc1
1.79

====

- Tested on: Enterobacter cloacae
- Assay name: Antibacterial activity against multidrug resistant Enterobacter cloacae subsp. cloacae CDC 442-68 (ATCC 13047) assessed as reduction in bacterial growth incubated for 6 to 8 hrs
- Assay type: functional, organism-based
pEC50: −log10 of the molar value.
Endpoint label: pEC50

Below, 3 molecules whose answers are already recorded.
- O=C(/C=C/c1ccco1)c1ccc(NC(=O)c2cccs2)cc1: < 4.00
- CO[C@H]1/C=C/O[C@@]2(C)Oc3c(C)c(O)c4c(O)c(c(/C=N/N5CCN(C)CC5)c(O)c4c3C2=O)NC(=O)/C(C)=C\C=C\[C@H](C)[C@H](O)[C@@H](C)[C@@H](O)[C@@H](C)[C@H](OC(C)=O)[C@@H]1C: 5.21
- CCCCCCCCCC(=O)N[C@@H](Cc1c[nH]c2ccccc12)C(=O)N[C@@H](CC(N)=O)C(=O)N[C@@H](CC(=O)O)C(=O)N[C@@H]1C(=O)NCC(=O)N[C@@H](CCCN)C(=O)N[C@@H](CC(=O)O)C(=O)N[C@H](C)C(=O)N[C@@H](CC(=O)O)C(=O)NCC(=O)N[C@H](CO)C(=O)N[C@@H]([C@H](C)CC(=O)O)C(=O)N[C@@H](CC(=O)c2ccccc2N)C(=O)O[C@@H]1C: < 4.00

Requested field: pEC50. Item: O=C(Nc1ccc2nc(-c3ccco3)c(-c3ccco3)nc2c1)N1CCCC1
< 4.00

====

- Tested on: Staphylococcus aureus
- Assay name: Antibacterial activity against methicillin resistant Staphylococcus aureus subsp. aureus HPV107 (ATCC BAA-44) assessed as reduction in bacterial growth incubated for 6 to 8 hrs
- Assay type: functional, organism-based
# EC50 listing for each entry below
Please respond with the number in µM and leave the unit unwritten.

Requested field: EC50. Item: COC(=O)c1ccc(-c2ccc(/C=C3/SC(=S)NC3=O)o2)cc1
1.5

Requested field: EC50. Item: CNC(=O)Nc1ccc2nc(-c3ccco3)c(-c3ccco3)nc2c1
94

Requested field: EC50. Item: COc1ccc(C(=O)N/N=C/c2ccc(O)c3ncccc23)cc1
56

====

- Tested system: HSP60/HSP10 (Homo sapiens)
- Sequence (P10809 whole entry): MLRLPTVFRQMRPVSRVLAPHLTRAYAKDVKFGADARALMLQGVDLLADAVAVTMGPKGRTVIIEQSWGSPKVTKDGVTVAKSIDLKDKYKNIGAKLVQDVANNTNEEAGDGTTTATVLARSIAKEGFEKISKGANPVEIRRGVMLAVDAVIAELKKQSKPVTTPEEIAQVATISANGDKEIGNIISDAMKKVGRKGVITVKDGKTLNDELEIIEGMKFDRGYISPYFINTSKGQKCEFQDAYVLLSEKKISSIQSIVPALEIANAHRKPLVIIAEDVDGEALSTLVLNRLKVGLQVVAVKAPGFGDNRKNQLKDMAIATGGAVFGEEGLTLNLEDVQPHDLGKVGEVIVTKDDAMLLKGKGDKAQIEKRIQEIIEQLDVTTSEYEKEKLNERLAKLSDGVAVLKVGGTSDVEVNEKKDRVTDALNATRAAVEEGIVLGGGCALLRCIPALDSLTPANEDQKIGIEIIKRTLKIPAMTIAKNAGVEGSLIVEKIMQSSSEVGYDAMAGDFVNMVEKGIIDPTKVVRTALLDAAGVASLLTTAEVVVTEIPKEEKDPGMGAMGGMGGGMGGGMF
- Sequence (P61604 whole entry, further chain): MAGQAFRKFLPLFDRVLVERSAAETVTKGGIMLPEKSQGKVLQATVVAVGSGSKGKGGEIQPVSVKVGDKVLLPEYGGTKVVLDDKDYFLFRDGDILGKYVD
- Assay name: Inhibition of human HSP60/HSP10 expressed in Escherichia coli Rosetta2(DE3) cells assessed as inhibition of denatured pig heart MDH refolding by measuring reduction in NADH production incubated for 60 mins by micro plate reader analysis
Endpoint label: IC50 (µM)
Please respond with the number in µM and leave the unit unwritten.

- O=C(/C=C/c1cccc([N+](=O)[O-])c1)c1ccc(NC(=O)c2ccco2)cc1: 1.6
- O=c1c([N+](=O)[O-])c(Cl)c2ccccc2n1Cc1ccccc1: 2.8
- CNC(=O)Nc1ccc2nc(-c3ccco3)c(-c3ccco3)nc2c1: 7.4
- O=C(Nc1cc([N+](=O)[O-])ccc1O)c1ccc2c(c1)C(=O)N(Cc1ccccc1)C2=O: 38
- O=C(Nc1ccc(Sc2nc3ccccc3s2)c(Cl)c1)c1cc(Br)cc(Br)c1O: 5.5

Record O=C1/C(=C/c2ccc(O)c(O)c2)SC(=S)N1c1ccc(O)cc1 : what is its IC50 with HSP60/HSP10 (Homo sapiens)?
4.9

====

- System: Acinetobacter baumannii
- Assay name: Antibacterial activity against multidrug resistant Acinetobacter baumannii 2208 (ATCC 19606) assessed as reduction in bacterial growth incubated for 6 to 8 hrs
- Type: functional
# EC50 listing for each entry below

Below, 5 molecules whose answers are already recorded.
- CO[C@H]1/C=C/O[C@@]2(C)Oc3c(C)c(O)c4c(O)c(c(/C=N/N5CCN(C)CC5)c(O)c4c3C2=O)NC(=O)/C(C)=C\C=C\[C@H](C)[C@H](O)[C@@H](C)[C@@H](O)[C@@H](C)[C@H](OC(C)=O)[C@@H]1C: 0.47 µM
- O=C(/C=C/c1ccc([N+](=O)[O-])cc1)c1ccc(O)c(O)c1: > 100 µM
- O=C(CC1Nc2cccc3cccc(c23)NC1=O)Nc1cccc([N+](=O)[O-])c1 (configuration not stated): > 100 µM
- O=C(Nc1ccc(Sc2nc3ccccc3s2)c(Cl)c1)c1cc(Br)cc(Br)c1O: 30 µM
- O=C(Nc1ccc2nc(-c3ccco3)c(-c3ccco3)nc2c1)N1CCCC1: > 100 µM

Requested field: EC50. Item: Nc1nnc(SCC(=O)c2ccc(-c3ccccc3)cc2)s1
> 100 µM

Requested field: EC50. Item: O=C(Nc1cc([N+](=O)[O-])ccc1O)c1ccc2c(c1)C(=O)N(Cc1ccccc1)C2=O
> 100 µM

Requested field: EC50. Item: CNC(=O)Oc1c(Br)cc2sc(=O)oc2c1Br
> 100 µM

Requested field: EC50. Item: Nc1ccc(Nc2nc(-c3ccc(O)c(O)c3)cs2)cc1
81 µM

Requested field: EC50. Item: NC[C@H]1O[C@H](O[C@H]2[C@H](O)[C@@H](O[C@H]3O[C@H](CO)[C@@H](O)[C@H](N)[C@H]3O)[C@H](N)C[C@@H]2N)[C@H](O)[C@@H](O)[C@@H]1O
16 µM

Requested field: EC50. Item: O=C(NCCO)Nc1ccc2nc(-c3ccco3)c(-c3ccco3)nc2c1
> 100 µM

Requested field: EC50. Item: O=C(/C=C/c1ccco1)c1ccc(NC(=O)c2cccs2)cc1
> 100 µM
